- method-summary: Plasma protein binding assay (equilibrium dialysis)
- Format: in vitro ADME
- assay-context: human plasma, 2 μM, dialysis 4 hours at 37° C.
Exercise: state measured % Bound for each of the compounds provided.
One number for each entry, in %.

As a guide, the following entries are already answered.
CCCc1nn(C)c2c(=O)[nH]c(-c3cc(S(=O)(=O)N4CC(NCCCO[N+](=O)[O-])C4)ccc3OCC)nc12 ... 97.53
CCCc1nn(C)c2c(=O)[nH]c(-c3cc(S(=O)(=O)N4CC(CCCO[N+](=O)[O-])C4)ccc3OCC)nc12 ... 99.52
CCCc1nn(C)c2c(=O)[nH]c(-c3cc(S(=O)(=O)N4CC(CCCO)C4)ccc3OCC)nc12 ... 96.01

Turning now to a further record.
Data request: Requested read-out: % Bound. Entry: `CCCc1nn(C)c2c(=O)[nH]c(-c3cc(S(=O)(=O)N4CC(NCCCO)C4)ccc3OCC)nc12`
Data returned: 86.19

----------
- target-system: human PDE-5A1 (Homo sapiens, UniProt O76074)
- method-summary: Human PDE-5A1 inhibition assay (fluorescence polarization)
- Type: biochemical
- assay-context: human PDE5A1, 100 nM FAM-cGMP, 60 minutes at room temperature
measured-quantity: IC50

As a guide, the following entries are already answered.
CCCc1nn(C)c2c(=O)[nH]c(-c3cc(S(=O)(=O)N4CC(CCO[N+](=O)[O-])C4)ccc3OCC)nc12 ... < 0.01 µM
CCCc1nn(C)c2c(=O)[nH]c(-c3cc(S(=O)(=O)N4CC(CCCO[N+](=O)[O-])C4)ccc3OCC)nc12 ... < 0.01 µM

Turning now to a further record.
Data request: Request - read-out IC50 | tested on human PDE-5A1 (Homo sapiens, UniProt O76074) | molecule `CCCc1nn(C)c2c(=O)[nH]c(-c3cc(S(=O)(=O)N4CC(NCCCO)C4)ccc3OCC)nc12`
Data returned: < 0.01 µM

----------
- target-system: UniProt:P51160
- Sequence (P51160 whole entry): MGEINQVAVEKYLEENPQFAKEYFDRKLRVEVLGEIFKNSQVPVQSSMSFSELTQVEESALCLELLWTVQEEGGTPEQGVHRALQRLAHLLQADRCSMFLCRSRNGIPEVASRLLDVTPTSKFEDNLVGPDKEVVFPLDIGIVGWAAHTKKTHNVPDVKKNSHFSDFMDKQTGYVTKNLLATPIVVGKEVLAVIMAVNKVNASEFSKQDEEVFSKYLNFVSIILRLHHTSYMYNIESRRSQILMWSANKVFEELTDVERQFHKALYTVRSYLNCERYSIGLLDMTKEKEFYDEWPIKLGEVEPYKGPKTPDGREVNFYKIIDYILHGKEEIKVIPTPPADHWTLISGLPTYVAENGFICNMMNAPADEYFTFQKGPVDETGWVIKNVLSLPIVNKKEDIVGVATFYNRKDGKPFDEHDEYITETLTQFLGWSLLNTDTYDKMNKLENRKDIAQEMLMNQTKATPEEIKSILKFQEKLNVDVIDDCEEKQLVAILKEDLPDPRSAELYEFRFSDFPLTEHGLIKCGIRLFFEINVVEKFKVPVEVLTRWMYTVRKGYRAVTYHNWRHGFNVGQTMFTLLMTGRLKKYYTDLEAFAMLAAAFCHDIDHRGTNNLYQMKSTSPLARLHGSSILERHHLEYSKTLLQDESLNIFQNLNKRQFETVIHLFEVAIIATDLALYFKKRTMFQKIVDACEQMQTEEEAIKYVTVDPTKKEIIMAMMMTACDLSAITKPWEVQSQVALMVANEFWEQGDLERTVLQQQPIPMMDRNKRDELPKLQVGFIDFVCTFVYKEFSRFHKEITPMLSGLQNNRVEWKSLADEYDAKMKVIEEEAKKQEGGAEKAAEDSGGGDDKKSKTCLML
- method-summary: Human PDE-6C inhibition assay (fluorescence polarization)
- Format: biochemical
- assay-context: human PDE6C, 100 nM FAM-cGMP, 60 minutes at room temperature
Exercise: state measured IC50 for each of the molecules provided.

As a guide, the following entries are already answered.
CCCc1nn(C)c2c(=O)[nH]c(-c3cc(S(=O)(=O)N4CC(NCCCO)C4)ccc3OCC)nc12 ... < 0.01 µM
CCCc1nn(C)c2c(=O)[nH]c(-c3cc(S(=O)(=O)N4CC(CCO[N+](=O)[O-])C4)ccc3OCC)nc12 ... < 0.01 µM

Turning now to a further record.
Data request: Request - read-out IC50 | tested on UniProt:P51160 | molecule `CCCc1nn(C)c2c(=O)[nH]c(-c3cc(S(=O)(=O)N4CC(CCCO[N+](=O)[O-])C4)ccc3OCC)nc12`
Data returned: < 0.01 µM
